test-system: human GSK-3β (Homo sapiens (Human), UniProt P49841)
Sequence (P49841 whole entry): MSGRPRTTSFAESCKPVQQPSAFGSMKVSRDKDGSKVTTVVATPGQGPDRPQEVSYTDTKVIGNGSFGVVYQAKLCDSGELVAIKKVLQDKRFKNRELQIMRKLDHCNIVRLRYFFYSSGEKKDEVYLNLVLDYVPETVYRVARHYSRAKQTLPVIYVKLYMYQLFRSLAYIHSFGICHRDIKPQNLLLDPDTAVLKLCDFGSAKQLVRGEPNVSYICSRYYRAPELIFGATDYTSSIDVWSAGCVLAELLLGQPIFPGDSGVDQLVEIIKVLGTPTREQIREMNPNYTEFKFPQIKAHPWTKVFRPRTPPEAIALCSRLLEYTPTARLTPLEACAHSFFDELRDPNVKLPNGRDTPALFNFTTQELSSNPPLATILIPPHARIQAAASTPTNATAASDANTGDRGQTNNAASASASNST
assay-details: Activity on human GSK-3β, LANCE substrate phosphorylation assay
Format: biochemical
run-conditions: compounds 1 to 15, LANCE assay, five concentrations 100 μM to 10 nM
pIC50: −log10 of the molar value.
readout-label: pIC50

Completed entries (count: 3):
input: For human GSK-3β (Homo sapiens (Human), UniProt P49841), provide pIC50 of COCCN1CCC(CNC(=O)c2n[nH]c3ccc(-c4ccccc4F)cc23)CC1 please.
output: 7.15

input: Checklist item: pIC50 tested on human GSK-3β (Homo sapiens (Human), UniProt P49841), entry COCCN1CCC(CNC(=O)c2n[nH]c3ccc(OC)cc23)CC1 , value?
output: 6.06

input: # value lookup — system human GSK-3β (Homo sapiens (Human), UniProt P49841), readout pIC50, item COCCN1CCC(CNC(=O)c2n[nH]c3ccc(-c4cnccc4OC)cc23)CC1
output: 7.30

(a) COCCN1CCC(CNC(=O)c2n[nH]c3ccc(-c4ccc(OC)nc4)cc23)CC1
(b) COCCN1CCC(CNC(=O)c2n[nH]c3ccc(-c4ccc(O)cc4)cc23)CC1
(c) COCCN1CCC(CNC(=O)c2n[nH]c3ccc(-c4cccnc4OC)cc23)CC1
(d) COCCN1CCC(CNC(=O)c2n[nH]c3ccc(-c4ccc(C)cc4)cc23)CC1
(e) COCCN1CCC(CNC(=O)c2n[nH]c3ccc(-c4ccccc4)cc23)CC1
input: Please produce an ascending ranking of these compounds based on pIC50. Form entry: labels listed in requested order.
output: c, b, d, e, a
(c: 5.85, b: 6.05, d: 6.25, e: 6.70, a: 7.30)

----------
test-system: DCAMKL1 (h) (Homo sapiens (Human))
Sequence (O15075 whole entry): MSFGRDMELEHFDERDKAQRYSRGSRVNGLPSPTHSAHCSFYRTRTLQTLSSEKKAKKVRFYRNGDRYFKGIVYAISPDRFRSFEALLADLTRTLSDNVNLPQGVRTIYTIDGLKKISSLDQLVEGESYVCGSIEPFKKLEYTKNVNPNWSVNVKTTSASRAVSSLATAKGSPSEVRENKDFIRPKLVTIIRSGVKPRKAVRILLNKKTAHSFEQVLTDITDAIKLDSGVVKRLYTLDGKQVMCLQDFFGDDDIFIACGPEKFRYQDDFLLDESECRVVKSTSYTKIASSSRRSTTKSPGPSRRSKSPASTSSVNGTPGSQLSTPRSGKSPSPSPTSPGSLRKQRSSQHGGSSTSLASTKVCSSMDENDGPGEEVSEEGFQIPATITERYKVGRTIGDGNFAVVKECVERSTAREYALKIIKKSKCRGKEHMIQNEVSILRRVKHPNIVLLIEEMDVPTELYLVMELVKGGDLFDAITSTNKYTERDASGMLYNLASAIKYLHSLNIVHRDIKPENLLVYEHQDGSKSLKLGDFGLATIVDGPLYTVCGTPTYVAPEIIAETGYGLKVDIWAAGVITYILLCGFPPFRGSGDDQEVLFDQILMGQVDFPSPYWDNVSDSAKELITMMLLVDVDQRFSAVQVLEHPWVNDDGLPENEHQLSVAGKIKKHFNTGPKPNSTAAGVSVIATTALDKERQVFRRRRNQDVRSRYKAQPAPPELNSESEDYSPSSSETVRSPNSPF
assay-details: Kinase selectivity panel: DCAMKL1 (h)
Type: biochemical
run-conditions: 10 μM in duplicate, read-out: % inhibition of control values
Protocol: (a) Compounds 1 and 2 were tested against a panel of 60 kinases in order to assess their selectivity. The assays were chosen taking into consideration the diversity of assay families. […] Human recombinant kinases were incubated in the presence of specific peptide substrates plus ATP for different times (10, 15, 30, 60 or 90 minutes) at 22° C. Phosphorylated substrate was detected by LANCE or HTRF technology (CISBIO, MA, USA). […]
readout-label: inhibition at 10 µM (%)

These solved cases illustrate the format of a correct answer.
input: Consider the compound shown here: COc1ccc2[nH]nc(C(=O)NCC3CCN(CC(=O)O)CC3)c2c1 [Compound 1] What is its recorded inhibition at 10 µM?
output: 0

input: Quick one: inhibition at 10 µM for COc1ccc2[nH]nc(C(=O)NCC3CCN(CCC(=O)O)CC3)c2c1 [Compound 3] ?
output: 0

(a) COCCN1CCC(CNC(=O)c2n[nH]c3ccc(OC)cc23)CC1 [Compound 2]
(b) COCCN1CCC(CNC(=O)c2n[nH]c3ccc(-c4cccc(F)c4F)cc23)CC1 [Compound 8]
input: Looking only at measured inhibition at 10 µM, which entry is lower, a or b ? Output the label that corresponds to your choice.
output: b
(b: 0%, a: 3%)

----------
test-system: MNK2 (h) (Homo sapiens (Human), UniProt Q9HBH9)
Sequence (Q9HBH9 whole entry): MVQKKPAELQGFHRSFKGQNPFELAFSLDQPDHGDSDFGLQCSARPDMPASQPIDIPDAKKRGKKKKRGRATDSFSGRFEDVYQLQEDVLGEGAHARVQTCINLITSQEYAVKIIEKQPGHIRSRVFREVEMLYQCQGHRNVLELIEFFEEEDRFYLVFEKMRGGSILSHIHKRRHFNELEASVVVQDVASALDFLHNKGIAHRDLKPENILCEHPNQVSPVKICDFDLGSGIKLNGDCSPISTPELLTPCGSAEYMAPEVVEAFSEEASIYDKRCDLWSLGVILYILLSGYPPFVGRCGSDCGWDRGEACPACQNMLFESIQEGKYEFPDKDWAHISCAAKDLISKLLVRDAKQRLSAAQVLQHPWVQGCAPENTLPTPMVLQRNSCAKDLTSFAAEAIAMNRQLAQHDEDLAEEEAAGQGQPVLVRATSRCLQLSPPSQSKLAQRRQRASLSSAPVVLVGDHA
assay-details: Kinase selectivity panel: MNK2 (h)
Format: biochemical
run-conditions: 10 μM in duplicate, read-out: % inhibition of control values
Experimental: (a) Compounds 1 and 2 were tested against a panel of 60 kinases in order to assess their selectivity. The assays were chosen taking into consideration the diversity of assay families. […] Human recombinant kinases were incubated in the presence of specific peptide substrates plus ATP for different times (10, 15, 30, 60 or 90 minutes) at 22° C. Phosphorylated substrate was detected by LANCE or HTRF technology (CISBIO, MA, USA). […]
readout-label: inhibition at 10 µM (%)

input: Which inhibition at 10 µM is listed for COCCN1CCC(CNC(=O)c2n[nH]c3ccc(OC)cc23)CC1 [Compound 2] ?
output: 0

input: Param item = COCCN1CCC(CNC(=O)c2n[nH]c3ccc(-c4cccc(F)c4F)cc23)CC1 [Compound 8] ; retrieve measured inhibition at 10 µM.
output: 4

(P) COc1ccc2[nH]nc(C(=O)NCC3CCN(CC(=O)O)CC3)c2c1 [Compound 1]
(Q) COc1ccc2[nH]nc(C(=O)NCC3CCN(CCC(=O)O)CC3)c2c1 [Compound 3]
input: // select label with min value of measured inhibition at 10 µM from [ P , Q ] # respond with the chosen item's label
output: P
(P: 0%, Q: 3%)

Data provenance is patent US9611249B2.
